Molecular target: UniProt:Q07869
Sequence (Q07869 239-466 limits assumed): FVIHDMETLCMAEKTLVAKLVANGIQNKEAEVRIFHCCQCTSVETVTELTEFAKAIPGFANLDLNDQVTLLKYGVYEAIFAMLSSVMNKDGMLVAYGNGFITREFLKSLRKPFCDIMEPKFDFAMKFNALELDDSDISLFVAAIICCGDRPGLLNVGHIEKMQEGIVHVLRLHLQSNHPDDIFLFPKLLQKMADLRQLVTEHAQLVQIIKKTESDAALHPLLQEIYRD
experimental readout: IC50 (µM)
I only need the number, in µM, no unit after it.

Reported IC50, compound Cc1cc(SCCCc2ccc3ccccc3c2)ccc1OCC(=O)O : ____
3.54

Numbers sourced from patent US7244763B2.
